# test-target: BAF/3 cells expressing human CXCR2 (Homo sapiens, UniProt P25025)
# Construct: expressed in transfected cells; host or cells: BAF/3 cells
# Sequence (P25025 1-360): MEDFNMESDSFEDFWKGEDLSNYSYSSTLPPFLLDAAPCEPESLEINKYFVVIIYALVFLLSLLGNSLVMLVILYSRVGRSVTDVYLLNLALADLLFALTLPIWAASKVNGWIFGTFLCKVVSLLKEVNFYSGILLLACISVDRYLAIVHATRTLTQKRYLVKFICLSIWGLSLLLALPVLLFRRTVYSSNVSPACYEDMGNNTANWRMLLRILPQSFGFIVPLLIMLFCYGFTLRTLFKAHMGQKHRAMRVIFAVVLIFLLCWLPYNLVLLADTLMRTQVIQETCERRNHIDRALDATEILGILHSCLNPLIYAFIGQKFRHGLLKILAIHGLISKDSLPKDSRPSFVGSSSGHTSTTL
# assay-procedure: Chemotaxis assay 1, transfected cell line: inhibition of CXCL1 induced chemotaxis
# Assay type: cell-based
# condition-label: inhibition of CXCL1 (3 nM) induced chemotaxis of BAF/3 cells expressing human CXCR2; 4 hours incubation
Consider the following compounds and their measured pIC50 readings.
The read-out pIC50 is expressed as -log10 of concentration in moles per litre.

{"compound": "CC[C@@H](Nc1c(Nc2cccc(C(=O)N3CCN4CCC[C@@H]4C3)c2O)c(=O)c1=O)c1ccccc1", "value-type": "pIC50", "reading": 8.49}
{"compound": "CC[C@@H](Nc1c(Nc2cccc(C(=O)N3CC4(COC4)C3)c2O)c(=O)c1=O)c1ccccc1", "value-type": "pIC50", "reading": 7.60}
{"compound": "O=C(Nc1cccc(C(=O)N2CCN3C(=O)CCC3C2)c1O)Nc1cccc(F)c1Cl (stereo not shown)", "value-type": "pIC50", "reading": 7.96}

Query: # input compound: CC[C@@H](Nc1c(Nc2cccc(C(=O)N3CCN4C(=O)COC[C@@H]4C3)c2O)c(=O)c1=O)c1ccccc1 ; wanted: its pIC50
Reply: 8.47

Query: What value of measured pIC50 is listed for O=C(Nc1cccc(C(=O)N2CC(=O)N3CCCC3C2)c1O)Nc1cccc(F)c1Cl (stereo not shown) ?
Reply: 7.07

Query: So what does the record say about pIC50 for O=C(c1cccc(Nc2c(Nc3ccccc3Br)c(=O)c2=O)c1O)N1CCN2CCCC2C1 (stereo not shown) ?
Reply: 8.82

Query: For CC[C@@H](Nc1c(Nc2cccc(C(=O)N3CC4OC(C)(C)C[C@@H]4[C@H]3CO)c2O)c(=O)c1=O)c1ccccc1 (stereo partly shown) , what is its reported pIC50?
Reply: 7.47

Query: So what does the record say about pIC50 for CC[C@@H](Nc1c(Nc2cccc(C(=O)N3CCN4CCOC[C@H]4C3)c2O)c(=O)c1=O)c1ccccc1 ?
Reply: 7.29
